Hi there, I'd appreciate the recorded growth inhibition for every entry that follows.
- experimental-details: NCI Yeast Anticancer Drug Screen. Data for the cln2 rad14 strain (AID 165);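 also: 0% = growth equal to vehicle treated cultures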
- condition-parameters: S. cerevisiae cln2 rad14 strain, at 50.0 µM, hits give high values
This is part of a sample that, as a whole, favours compounds with a hit. Of some 79,000 tested, about 15% had one in any assay.
All answers are understood in %, so give the number only.

Read the entry "C=CCP(c1ccccc1)c1ccccc1" and write its reported growth inhibition. 8

Give the reported growth inhibition for this compound. "O=P(O)(O)CCc1ccccc1" -15.8

Specify growth inhibition for "C=C(Br)C[N+]12CN3CN(CN(C3)C1)C2" and stop. -6.95

Note down growth inhibition recorded for O=[N+]([O-])c1ccc(SN2C3CCCCC32)c([N+](=O)[O-])c1 (stereo not drawn) 7.85

Please give the documented growth inhibition of "CNC(=O)c1[nH]cnc1/N=N/N(C)N" 87.9

Let me know recorded growth inhibition for O=[N+]([O-])c1ccc(SC2CCCCCCC2Br)c([N+](=O)[O-])c1 (stereo not drawn) , thanks. -33.6

Name the recorded growth inhibition of the item "CNC1=C(N2CC2)C(=O)C(NC)=C(N2CC2)C1=O" in your answer. 10.8

Give the value of growth inhibition reported for the following: CC(Cc1ccc2c(c1)OCO2)NCC(O)c1ccc(O)c(O)c1 (stereo not drawn) 5

Please give the documented growth inhibition of "O=C1NC(=S)N/C1=C/c1ccccc1O" -14.8

For the compound "CO[C@@]12[C@@H]3N[C@@H]3CN1C1=C(C(=O)C(NCCC#N)=C(C)C1=O)[C@@H]2COC(N)=O" , give its reported growth inhibition. 10.6

Output growth inhibition of "NNc1nncn1N" 51.3

Supply reported growth inhibition belonging to this compound: "CN(C)C(=O)Sc1cc(Cl)c(S(=O)(=O)F)cc1Cl" 8.9

Report growth inhibition, nothing else, for this compound: "CN(C)P(=O)(N(C)C)N1CCCCC1" -22
